# measurementProtocol: soluble on expression in E. coli; label from the status in PepcDB or PDB records
quantityKind: soluble on expression in E. coli

Worked cases, soluble on expression in E. coli given:
| querySequence | measured |
| --- | --- |
| MSEPTYFMPPEWAPHASTWLSWPHKLESWPGKFEPVPAVFAELAYQLSRSETVNINVLDDAMEAQARELLKERDPEGKYAERIVFHRIPTNDAWCRDHGPNYVIRTQDGRRDKVIMNWEYNAWGGKYEPYDDDNAVPERVAKAQGLPMVSTGMVLEGGAIDVNGAGLLLTTTACLLNPNRNPSLGKAEIEAQLRRYLGIEKVLWLGDGIAGDDTDGHVDDMARFVNENTVVIAVEEDPEDENYKPLRENYELLKTMTGLDGKPLNIVKLPMPEPVYYDGERLPASYANFYIANTVVLVPTYRCPRDQQAIDILQQCFPKREVVGIDCSDLIWGLGAIHCVTHEEPAMLEHHHHHH | soluble |
| MGSDKIHHHHHHMDKDERLHYLDSLERLRGSKVLVYFAYTPLDDSILVPLYEQLKAIGHTEKIDLLLHSYGGAVDTPYKVVMLIREFCNEFGVIVPFVAKSAASMLVLGADEVVMGPISELGPIDPLIKHPIYKELWVPVQAIRYCIDYLQRSIESNPNPELVTGIITPMINKLDPWLIGDYEKALKASHQYAEALLSRYMLKDNPELVPVVTRALTEGYFSHGYPIGRQEAKELGLRVTEAEDELWDVIWSLYRGYEELFSTCDSGDRV | not soluble |
| MSLSKREEWAQGFILNLQSGYTQGTVGFGLDAMGMLGVKLDSGRGRSGTGLLPKDSDGRAPDTYSKLGLTAKVKVSQSELKVGTLIPKLPSVQPNNGRIFPQIFEGALLTSKEIKDLGFTAGRLEKTKIRDSSDSEDLALNDKNGRFAGVSADHFDLGGLDYKLTDQLTASYHYSNLQDVYRQHFVGLLHSWPIGPGELTSDLRFARSTDSGSAKAGGIDNKSLNGMFTYSLGNHAFGAAWQRMNGDDAFPYLEGSNPYLVNFVQVNDFAGPKERSWQLRYDYDFVGLGIPGLTFMTRYVKGDNVELAGQSGEGREWERNTELQYVFQSGALKNLGIRWRNATFRSNFTRDIDENRLIVSYTLPIWEGHHHHHH | not soluble |
| MGSHHHHHHDITSLYKKAGSAAAVLEENLYFQGSFTMRRKVFEELVTATKILLNEGIMDTFGHISARDPEDPASFFLAQKLAPSLITVDDIQRFNLDGETSDNRPSYLERYIHSEIYKTRPDVQCVLHTHSPAVLPYCFVDTPLRPVTHMGAFIGESVPVYEIRDKHGDETDLFGGSPDVCADIAESLGSQTVVLMARHGVVNVGKSVREVVFRAFYLEQEAAALTAGLKIGNVKYLSPGEIKTAGKLVGAQIDRGWNHWSQRLRQAGLA | soluble |

Then this sequence:
[Q] Endpoint output: soluble on expression in E. coli of MKHHHHHHPMGHMQTLIFLDLEATGLPSSRPEVTELCLLAVHRRALENTSISQGHPPPVPRPPRVVDKLSLCIAPGKACSPGASEITGLSKAELEVQGRQRFDDNLAILLRAFLQRQPQPCCLVAHNGDRYDFPLLQTELARLSTPSPLDGTFCVDSIAALKALEQASSPSGNGSRKSYSLGSIYTRLYWQAPTDSHTAEGDVLTLLSICQWKPQALLQWVDEHARPFSTVKPMYGTPATTGTTNLR . Value?
[A] soluble

----------
# measurementProtocol: soluble on expression in E. coli; label from the status in PepcDB or PDB records

| querySequence | soluble on expression in E. coli |
| --- | --- |
| SMSRPDQAARRRAIAAELHVSPTFDARDEAERRIGFVADYLRTAGLRACVLGISGGIDSSTAGRLAQLAVERLRASGYDARFVAMRLPYGAQHDEADARRALAFVRADETLTVDVKPAADAMLAALAAGGLAYLDHAQQDFVLGNIKARERMIAQYAVAGARNGVVIGTDHAAESVMGFFTKFGDGGADVLPLAGLTKRRVRALARMLGADEPLVLKTPTADLETLRPQRPDEHAYGITYEQIDDFLEGKPMDDAVAETVLRFYDATRHKRALPYTMFDWPGHPA | soluble |
| NSSKCYIQVTGMTCASCVANIERNLRREEGIYSILVALMAGKAEVRYNPAVIQPPMIAEFIRELGFGATVIENIEGR | soluble |

----------
# measurementProtocol: soluble on expression in E. coli; label from the status in PepcDB or PDB records
quantityKind: soluble on expression in E. coli

// worked examples, soluble on expression in E. coli included
| querySequence | measured |
| --- | --- |
| RPNVERDAQRRVNIRVTDEIVTALNERRIVMAFEPVVQAVSRAPAFHECLVRMKQDDGELLLAPDIVPVAEKLGLIRLVDHRVLELVVAELAAAPGVELSLNISPDTTMDADWWASIESLLGANPGVAERLIVEITETVAIQDLDDVRGFVNRLKNFGARIAIDDFGAGYTSFRNLRNLGVDIVKIDGAFVQNIARSADDRAFVQTLIDLARRLEIKTVAEWVQDEASAIMLRDWGCDYIQGRLIGLA | not soluble |
| GAMDENDEGVRGTCEDASLCKRFAVSIGYWHDPYIQHFVRLSKERKAPEINRGYFARVHGVSQLIKAFLRKTECHCQIVNLGAGMDTTFWRLKDEDLLPSKYFEVDFPMIVTRKLHSIKCKPPLSSPILELHSEDTLQMDGHILDSKRYAVIGADLRDLSELEEKLKKCNMNTQLPTLLIAECVLVYMTPEQSANLLKWAANSFERAMFINYEQVNEGKSLESQKERLLSNGWETASAVDMMELYNRLPRAEVSRIESLEFLDEMELLEQLMRHYCLCWATKGGNELGLKEITY | soluble |
| MIDAVATDSSSTPSNEKPRRARRTRMTGAERRQQLLEIGRTLFAAKGFEGTSVEEIAAKAGVSKPVVYEHFGGKEGLYAVVVDREMRRLLDMVTGSLTAGHPRELCEQAAFALLDYIEEYTDGFRILVRDSPIPQSTGTFASLISDIATQVEDILGREFKNRGFDAKLAPLYAQALVGMVALTGQWWLDVRRPKKAEVAAHLVNLAWHGLDGLEPKPRLIGHRKS | not soluble |
| GSHGGIEGVKGAASGVVGELARARLALDERGQKLSDLEERTAAMMSSADSFSKHAHEMMLKYK | soluble |
| MEKKIEKVRQFYTALAQGDFETVGALLSDDLVWHQPGQGALSGTYNGKQNVFAHLERMAQLSNGTFAIDQVDYVTDNGNLVAAAIAFAVSANGHSIEMKGVDLFNFENGFIKKVWLFSERIEEESRFWTALAQGC | not soluble |

[Q] Data request, read-out soluble on expression in E. coli, for MRQSSQARETTETKIKLNLQLDESTNVSIQTGVGFFDHMLTLFARHGRFGLQVEAEGDVFVDAHHTVEDVGIVLGNCLKEALQNKEGINRYGSAYVPMDESLGFVAIDISGRSYCVFQGELTNPKLGDFDTELTEEFFRAVAHAANITLHARVLYGSNTHHKIEALFKAFGRALREAVEKNANITGVNSTKGML
[A] not soluble

[Q] // returns reported soluble on expression in E. coli for input MGSDKIHHHHHHLYNNSANTQFTGKSIHFLPSCHSTNTEASLLIRAQKAVNGLIVITNEQTAGRGQQGNSWLSKADSNLTFSVIFFPEKLHLKDSFYLNIVSSLSIAKTVDELVPENIVKVKWPNDILLNNKKVCGILIENMLRGEHIHAVVMGIGVNVNHSDGNLPFAGAMSSEAAKTFHLQEVFTRICENLEPYYLMLEQGLFAELDALYLQNLYGLNEKKHFSDSEGNFTGTIQAVLPGGLLQVEKESGVIKQYTFKEVSLVK
[A] not soluble

----------
# measurementProtocol: soluble on expression in E. coli; label from the status in PepcDB or PDB records

| querySequence | soluble on expression in E. coli |
| --- | --- |
| MGSDKIHHHHHHVGFLDGLMGGKQAPLVGLDISSSSVKLVELGQSASGQYVLERFATESFERGWIADGQIEKFDEVADAVRRVVSKSGTRSKRVAMAMPQSAVITKKIMLPAGLRDEELELQVESEANQYIPFSLDEVSLDFCVVGPSPSSVGDVEVLIAASRKDRVQDRQGLAEAAGLKPVVLDIESHASRLAMMRIVSALPNEGRDALVALFEIGAETTSLKVLRDEELLYDRDQAFGGSQLTQMISRQYGFSFEEAEQKKLASDLPEDYESSLLVPFVDSLAQEIGRALQYFFTSTPHHKVHYVMLGGGTATLPGLKERVTELTGFASMVVNPFEGMRLGSAVRESKLRREAPAYLTACGLAMRRFL | not soluble |
| MGSDKIHHHHHHMSNLPLISVVIPTYGREEILRDSIVDVLNQDYPKYEVLVVDQSPKHKPEIETYLEEVAAAGKVKWFRLDWASLPGARNYAIRRASGEIILFIDDDVKLKPGFLAAHAKNYVQNPDVGSVAGRVFDRMKLGDSGGNLEIEYLPPEAMDPGVAWYHIDLVHTIKPQQVLTARGCNMSFRREIFTKHGLRFDERFRGSAVREESDFCLRLRQTGYKIWYDPEADLIHLGEETGGCHDISMRSLKYQFTFYHNHFLLGLKNLNFSQALRLYARLFDCHVLGRPPCHKSGSPIKIITRGIFYILGFFRALGSVIQSNWHDGQIYSRLDQESIIKSQESMVNS | not soluble |
